Target: rat TRPV2 (Rattus norvegicus, UniProt Q9WUD2)
Sequence (Q9WUD2 1-761): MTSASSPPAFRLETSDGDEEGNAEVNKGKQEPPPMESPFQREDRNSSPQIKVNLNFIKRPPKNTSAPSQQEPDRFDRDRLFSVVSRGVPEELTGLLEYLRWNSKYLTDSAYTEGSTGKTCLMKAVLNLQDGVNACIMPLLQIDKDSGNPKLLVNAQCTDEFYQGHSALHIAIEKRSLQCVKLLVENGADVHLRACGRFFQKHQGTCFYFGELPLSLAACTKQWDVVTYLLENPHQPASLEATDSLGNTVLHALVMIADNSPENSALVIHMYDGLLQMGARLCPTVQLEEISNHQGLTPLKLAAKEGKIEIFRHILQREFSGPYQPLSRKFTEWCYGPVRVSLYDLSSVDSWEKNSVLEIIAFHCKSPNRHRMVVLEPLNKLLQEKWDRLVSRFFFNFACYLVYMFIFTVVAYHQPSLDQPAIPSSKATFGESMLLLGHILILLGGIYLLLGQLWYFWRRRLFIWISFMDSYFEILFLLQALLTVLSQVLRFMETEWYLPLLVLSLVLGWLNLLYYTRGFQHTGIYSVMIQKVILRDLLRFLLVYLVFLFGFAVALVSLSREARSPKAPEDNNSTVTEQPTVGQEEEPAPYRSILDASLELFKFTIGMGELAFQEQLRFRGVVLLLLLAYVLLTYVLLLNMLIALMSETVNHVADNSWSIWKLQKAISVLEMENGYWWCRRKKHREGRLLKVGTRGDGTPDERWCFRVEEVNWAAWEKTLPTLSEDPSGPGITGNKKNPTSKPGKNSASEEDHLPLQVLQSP
Experiment: Elevation of intracellular Ca2+ (Fluo-4) in HEK-293 cells stably transfected with rat TRPV2
property.label: IC50

Note to self: IC50 of C[C@@H]1O[C@@H](Oc2ccc(CN=C=S)cc2)[C@H](O)[C@H](O)[C@H]1O with rat TRPV2 (Rattus norvegicus, UniProt Q9WUD2) was > 100 µM
